# Measurement Target: human TLR9 (hTLR9) (Homo sapiens)
# Construct: host or cells: HEK293 (HEK-Blue-hTLR9)
# Sequence (Q9NR96 26-1032): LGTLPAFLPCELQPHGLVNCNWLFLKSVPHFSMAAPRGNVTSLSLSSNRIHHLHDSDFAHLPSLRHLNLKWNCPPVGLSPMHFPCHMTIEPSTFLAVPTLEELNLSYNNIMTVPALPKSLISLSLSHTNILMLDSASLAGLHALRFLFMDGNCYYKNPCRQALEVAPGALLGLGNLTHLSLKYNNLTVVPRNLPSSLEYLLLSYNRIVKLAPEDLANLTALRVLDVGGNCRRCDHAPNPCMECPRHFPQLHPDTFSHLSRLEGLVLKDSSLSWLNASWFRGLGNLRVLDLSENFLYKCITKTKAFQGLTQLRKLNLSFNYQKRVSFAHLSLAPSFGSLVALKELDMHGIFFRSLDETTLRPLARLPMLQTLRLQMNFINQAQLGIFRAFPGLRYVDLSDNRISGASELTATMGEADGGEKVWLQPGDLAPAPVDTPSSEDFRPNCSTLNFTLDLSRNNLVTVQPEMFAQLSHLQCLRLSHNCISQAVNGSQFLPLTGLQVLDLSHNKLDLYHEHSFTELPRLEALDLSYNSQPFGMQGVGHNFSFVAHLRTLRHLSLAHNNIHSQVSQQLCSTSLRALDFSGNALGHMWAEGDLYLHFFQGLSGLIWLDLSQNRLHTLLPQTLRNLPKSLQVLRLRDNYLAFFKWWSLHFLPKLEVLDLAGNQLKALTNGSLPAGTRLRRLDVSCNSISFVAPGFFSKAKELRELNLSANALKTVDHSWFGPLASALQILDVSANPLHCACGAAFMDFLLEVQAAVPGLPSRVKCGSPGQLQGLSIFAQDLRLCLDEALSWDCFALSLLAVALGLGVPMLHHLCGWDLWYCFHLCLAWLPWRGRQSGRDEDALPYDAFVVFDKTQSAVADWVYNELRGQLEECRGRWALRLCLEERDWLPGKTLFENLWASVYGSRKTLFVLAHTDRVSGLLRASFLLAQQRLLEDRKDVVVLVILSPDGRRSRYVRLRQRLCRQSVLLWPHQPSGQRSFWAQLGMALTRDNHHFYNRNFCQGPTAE
# Protocol Text: TLR9 antagonist assay (HEK-Blue-hTLR9 cells, NF-kB/AP-1 driven SEAP reporter, ODN 2006 agonist)
# Assay type: cell-based
# Details: 1 hour compound pre-incubation, then hTLR9 agonist (such as ODN 2006, 1 uM) overnight, SEAP read at 620 nm, 4 parameter Hill fit, read-out: hTLR9 antagonism IC50
Lab note: anything with IC50 below 0.3 µM is marked Met; values at 0.3 µM or higher are marked Not met.

| Line Notation | Group Label |
| --- | --- |
| CCOCc1nc2c(N(C)CCN(C)C)nc3ccccc3c2n1CCN1CCOCC1 | Not met |
| CN(C)CCN(C)c1nc2ccccc2c2c1nc(O)n2CCc1c[nH]cn1 | Not met |
| CCOCc1nc2c(N3CCN(C)CC3)nc3ccccc3c2n1CCN1CCN(C)CC1 | Not met |
| CCOCc1nc2c(N(C)CCN(C)C)nc3ccccc3c2n1CCN(C)C | Not met |
| CCOCc1nc2c(N(C)CCN(C)C)nc3ccccc3c2n1CCN1CCN(C)CC1 | Met |
| CN(C)CCN(C)c1nc2ccccc2c2c1nc(O)n2CCN(C)C | Met |
| CN(C)CCN(C)c1nc2ccccc2c2c1ncn2CCN(C)C | Met |
| CCOCc1nc2c(N3CCN(C)CC3)nc3ccccc3c2n1CCOCCO | Not met |
| CCOCc1nc2c(N3CCN(C)CC3)nc3ccccc3c2n1CCN(C)C | Not met |
| CCOCc1nc2c(N(C)CCN(C)C)nc3ccccc3c2n1CCOCCO | Not met |

Entry source: patent US9873694B2
